meta.source: patent US7405240B2

For each of the compounds below, state its maximum IOP decrease from baseline.
System: normotensive dogs
assay.overview: Intraocular pressure and ocular surface hyperemia in normotensive dogs
Format: in vivo, dog
details: 0.1%, once daily for 5 days
Only the number, expressed in mmHg, is required.

maximum IOP decrease from baseline recorded for this compound, CC(C)OC(=O)CCC/C=C\C[C@@H]1[C@@H](COc2ccc(CO)cc2)[C@H](O)C[C@H]1Cl [Example 42bb] , is 4.6

# maximum IOP decrease from baseline (compound: Cc1cc(C)cc(OC[C@@H]2[C@@H](C/C=C\CCCC(=O)OC(C)C)[C@H](Cl)C[C@H]2O)c1 [Example 42u] ) is 4.3

According to the records, this compound O=C(O)CCC/C=C\C[C@@H]1[C@@H](COc2cc(C(F)(F)F)cc(C(F)(F)F)c2)[C@H](O)C[C@H]1Cl displays maximum IOP decrease from baseline of 4.8

Query O=C(O)CCC/C=C\C[C@@H]1[C@@H](COc2cc(Cl)cc(Cl)c2)[C@H](O)C[C@H]1Cl [Example 15b] yields maximum IOP decrease from baseline of 4.8

For reference, reported maximum IOP decrease from baseline for O=C(O)CCC/C=C\C[C@@H]1[C@@H](COc2cccc(C(F)(F)F)c2)[C@H](O)C[C@H]1Cl stands at 2.5

Record summary for O=C(O)CCC/C=C\C[C@@H]1[C@@H](COc2ccc(CO)cc2)[C@H](O)C[C@H]1Cl : reported maximum IOP decrease from baseline = 2.8

Value of measured maximum IOP decrease from baseline for the entry Cc1cc(C)cc(OC[C@@H]2[C@@H](C/C=C\CCCC(=O)O)[C@H](Cl)C[C@H]2O)c1 : 6.5

get_value(item= CC(C)OC(=O)CCC/C=C\C[C@@H]1[C@@H](COc2cccc(C(F)(F)F)c2)[C@H](O)C[C@H]1Cl [Example 42i] , readout=maximum IOP decrease from baseline) returns 2.7

Record O=C(O)CCC/C=C\C[C@@H]1[C@@H](COc2cccc3ccccc23)[C@H](O)C[C@H]1Cl , field maximum IOP decrease from baseline: 5.8

====

Test system: laser-induced hypertensive monkeys
assay.overview: Intraocular pressure in laser-induced hypertensive monkeys
Assay type: in vivo, monkey
details: 0.1%, one single day dose
Would you mind telling me the reported time of maximum IOP decrease of each entry?
Express your answer in h, writing the number without its unit.

Entry O=C(O)CCC/C=C\C[C@@H]1[C@@H](COc2cc(Cl)cc(Cl)c2)[C@H](O)C[C@H]1Cl [Example 15b] , time of maximum IOP decrease reported as 6

The compound listed as O=C(O)CCC/C=C\C[C@@H]1[C@@H](COc2cccc3ccccc23)[C@H](O)C[C@H]1Cl has a reported time of maximum IOP decrease of 6

Value of measured time of maximum IOP decrease for the entry Cc1cc(C)cc(OC[C@@H]2[C@@H](C/C=C\CCCC(=O)OC(C)C)[C@H](Cl)C[C@H]2O)c1 [Example 42u] : 6

// time of maximum IOP decrease value for CC(C)OC(=O)CCC/C=C\C[C@@H]1[C@@H](COc2cccc(C(F)(F)F)c2)[C@H](O)C[C@H]1Cl [Example 42i] : 6

For this compound ( O=C(O)CCC/C=C\C[C@@H]1[C@@H](COc2cccc(C(F)(F)F)c2)[C@H](O)C[C@H]1Cl ), measured time of maximum IOP decrease is 6

Just so you know, measured time of maximum IOP decrease for Cc1cc(C)cc(OC[C@@H]2[C@@H](C/C=C\CCCC(=O)O)[C@H](Cl)C[C@H]2O)c1 came out at 2

Entry O=C(O)CCC/C=C\C[C@@H]1[C@@H](COc2cc(C(F)(F)F)cc(C(F)(F)F)c2)[C@H](O)C[C@H]1Cl , time of maximum IOP decrease reported as 6

Looking up CC(C)OC(=O)CCC/C=C\C[C@@H]1[C@@H](COc2ccc(CO)cc2)[C@H](O)C[C@H]1Cl [Example 42bb] , I found its time of maximum IOP decrease recorded as 6

Reported time of maximum IOP decrease ( O=C(O)CCC/C=C\C[C@@H]1[C@@H](COc2ccc(CO)cc2)[C@H](O)C[C@H]1Cl ) = 6
